Source: paper PMC5165203

Target: T1, His-ChlR1 63-214 (human, UniProt Q96FC9 63-214)
T1 construct: DNA helicase ChlR1, human, amino acids 63 to 214, cloned from pCMV-FLAG-ChlR1 into pHIS-TEV; Vector pHIS-TEV (NcoI/EcoRI); held on nickel resin by the hexahistidine tag in the pull-down; also called ChlR1 63-214 peptide
T1 sequence (looked up): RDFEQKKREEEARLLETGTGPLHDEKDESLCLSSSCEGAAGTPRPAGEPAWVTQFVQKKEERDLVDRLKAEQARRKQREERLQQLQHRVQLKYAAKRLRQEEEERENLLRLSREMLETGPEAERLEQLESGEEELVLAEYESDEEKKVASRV
Assay: pull-down; His-ChlR1 1-130 or His-ChlR1 63-214 immobilised on nickel resin, incubated with cleared whole-cell lysate of E2-transfected C33a cells for 16 h at 4°C; bound E2 by Western blotting, densitometry against input
Conditions: one partner purified
QUANTITY_KIND: % E2 bound (in comparison to the E2^WT binding level) (%)

>  <BINDER>
HPV16 E2 Y131A mutant (natural protein, E2 protein of human papillomavirus 16, from pCMV-16E2 by site-directed mutagenesis; source: C33a cells, transfected (mutated pCMV-16E2), in lysate) METLCQRLNVCQDKILTHYENDSTDLRDHIDYWKHMRLECAIYYKAREMGFKHINHQVVPTLAVSKNKALQAIELQLTLETIYNSQYSNEKWTLQDVSLEVYLTAPTGCIKKHGYTVEVQFDGDICNTMHATNWTHIYICEEASVTVVEGQVDYYGLYYVHEGIRTYFVQFKDDAEKYSKNKVWEVHAGGQVILCPTSVFSSNEVSSPEIIRQHLANHPAATHTKAVALGTEETQTTIQRPRSEPDTGNPCHTTKLLHRDSVDSAPILTAFNSSHKGRINCNSNTTPIVHLKGDANTLKCLRYRFKKHCTLYTAVSSTWHWTGHNVKHKSAIVTLTYDSEWQRDQFLSQVKIPKTITVSTGFMSI

>  <RECORDED_VALUE>
5.43

$$$$
>  <BINDER>
HPV16 E2 D124A mutant (natural protein, E2 protein of human papillomavirus 16, from pCMV-16E2 by site-directed mutagenesis; source: C33a cells, transfected (mutated pCMV-16E2), in lysate) METLCQRLNVCQDKILTHYENDSTDLRDHIDYWKHMRLECAIYYKAREMGFKHINHQVVPTLAVSKNKALQAIELQLTLETIYNSQYSNEKWTLQDVSLEVYLTAPTGCIKKHGYTVEVQFDGAICNTMHYTNWTHIYICEEASVTVVEGQVDYYGLYYVHEGIRTYFVQFKDDAEKYSKNKVWEVHAGGQVILCPTSVFSSNEVSSPEIIRQHLANHPAATHTKAVALGTEETQTTIQRPRSEPDTGNPCHTTKLLHRDSVDSAPILTAFNSSHKGRINCNSNTTPIVHLKGDANTLKCLRYRFKKHCTLYTAVSSTWHWTGHNVKHKSAIVTLTYDSEWQRDQFLSQVKIPKTITVSTGFMSI

>  <RECORDED_VALUE>
38.8

$$$$
>  <BINDER>
HPV16 E2 K177A mutant (natural protein, E2 protein of human papillomavirus 16, from pCMV-16E2 by site-directed mutagenesis; source: C33a cells, transfected (mutated pCMV-16E2), in lysate) METLCQRLNVCQDKILTHYENDSTDLRDHIDYWKHMRLECAIYYKAREMGFKHINHQVVPTLAVSKNKALQAIELQLTLETIYNSQYSNEKWTLQDVSLEVYLTAPTGCIKKHGYTVEVQFDGDICNTMHYTNWTHIYICEEASVTVVEGQVDYYGLYYVHEGIRTYFVQFKDDAEAYSKNKVWEVHAGGQVILCPTSVFSSNEVSSPEIIRQHLANHPAATHTKAVALGTEETQTTIQRPRSEPDTGNPCHTTKLLHRDSVDSAPILTAFNSSHKGRINCNSNTTPIVHLKGDANTLKCLRYRFKKHCTLYTAVSSTWHWTGHNVKHKSAIVTLTYDSEWQRDQFLSQVKIPKTITVSTGFMSI

>  <RECORDED_VALUE>
36.3

$$$$
>  <BINDER>
HPV16 E2 D173A mutant (natural protein, E2 protein of human papillomavirus 16, from pCMV-16E2 by site-directed mutagenesis; source: C33a cells, transfected (mutated pCMV-16E2), in lysate) METLCQRLNVCQDKILTHYENDSTDLRDHIDYWKHMRLECAIYYKAREMGFKHINHQVVPTLAVSKNKALQAIELQLTLETIYNSQYSNEKWTLQDVSLEVYLTAPTGCIKKHGYTVEVQFDGDICNTMHYTNWTHIYICEEASVTVVEGQVDYYGLYYVHEGIRTYFVQFKADAEKYSKNKVWEVHAGGQVILCPTSVFSSNEVSSPEIIRQHLANHPAATHTKAVALGTEETQTTIQRPRSEPDTGNPCHTTKLLHRDSVDSAPILTAFNSSHKGRINCNSNTTPIVHLKGDANTLKCLRYRFKKHCTLYTAVSSTWHWTGHNVKHKSAIVTLTYDSEWQRDQFLSQVKIPKTITVSTGFMSI

>  <RECORDED_VALUE>
80.5

$$$$
>  <BINDER>
HPV16 E2 E118A mutant (natural protein, E2 protein of human papillomavirus 16, from pCMV-16E2 by site-directed mutagenesis; source: C33a cells, transfected (mutated pCMV-16E2), in lysate) METLCQRLNVCQDKILTHYENDSTDLRDHIDYWKHMRLECAIYYKAREMGFKHINHQVVPTLAVSKNKALQAIELQLTLETIYNSQYSNEKWTLQDVSLEVYLTAPTGCIKKHGYTVAVQFDGDICNTMHYTNWTHIYICEEASVTVVEGQVDYYGLYYVHEGIRTYFVQFKDDAEKYSKNKVWEVHAGGQVILCPTSVFSSNEVSSPEIIRQHLANHPAATHTKAVALGTEETQTTIQRPRSEPDTGNPCHTTKLLHRDSVDSAPILTAFNSSHKGRINCNSNTTPIVHLKGDANTLKCLRYRFKKHCTLYTAVSSTWHWTGHNVKHKSAIVTLTYDSEWQRDQFLSQVKIPKTITVSTGFMSI

>  <RECORDED_VALUE>
107

$$$$
>  <BINDER>
HPV16 E2 H130R mutant (natural protein, E2 protein of human papillomavirus 16, from pCMV-16E2 by site-directed mutagenesis; source: C33a cells, transfected (mutated pCMV-16E2), in lysate) METLCQRLNVCQDKILTHYENDSTDLRDHIDYWKHMRLECAIYYKAREMGFKHINHQVVPTLAVSKNKALQAIELQLTLETIYNSQYSNEKWTLQDVSLEVYLTAPTGCIKKHGYTVEVQFDGDICNTMRYTNWTHIYICEEASVTVVEGQVDYYGLYYVHEGIRTYFVQFKDDAEKYSKNKVWEVHAGGQVILCPTSVFSSNEVSSPEIIRQHLANHPAATHTKAVALGTEETQTTIQRPRSEPDTGNPCHTTKLLHRDSVDSAPILTAFNSSHKGRINCNSNTTPIVHLKGDANTLKCLRYRFKKHCTLYTAVSSTWHWTGHNVKHKSAIVTLTYDSEWQRDQFLSQVKIPKTITVSTGFMSI

>  <RECORDED_VALUE>
45.2

$$$$
